Would you kindly list melting point for each of these compounds?
Reply with the number and its unit after it.

What value of melting point has been recorded for this entry: Clc1ccc(-c2ccccc2Cl)cc1
44 °C

Continue with C/C(CCc1oc2ccc(Cl)cc2c1-c1ccc(C)o1)=N\O
115 °C

Likewise for Clc1ccc(Cl)c(Cl)c1 ?
17 °C

---

measured.attribute: melting point (°C)
State the answer as a number, implicitly in °C.

Can you look up the measured melting point of O=S(Cl)Cl [Thionyl dichloride] for me?
-104

Repeat with N#Cc1ccc(O)cc1 [4-Hydroxybenzonitrile]
112

Another molecule: BrCCCCBr
-20

Item: CCOc1ccc(N)cc1 [p-ethoxyaniline]
4

Can you check Clc1ccc(Cl)c(Cl)c1 next?
17

Param item: N=C(N)NC(N)=S
164

Moving on to the next molecule: CCCI [1-iodopropane]
-101

Also Nc1c(Br)cc([N+](=O)[O-])cc1Br ?
207

---

Classes based on melting point: bin 0 (below 20 °C), bin 1 (20 °C to below 100 °C), bin 2 (100 °C or more)

Which category does the recorded melting point put Cc1cc(CO)nn1C in?
bin 1

Entry to check: Cc1cc(F)ccc1O
bin 1

Would you mind doing O=Cc1cccc(Cl)c1 as well?
bin 0

Can you handle O=Cc1cc(F)c(F)c(F)c1 next?
bin 1

Next: O=C(O)c1ccc(F)cc1
bin 2

CN1N=C(C(C)(C)C)CC1=O , same question.
bin 2

Please do the same for COC(=O)[C@@H]1C2CCC(C[C@@H]1OC(=O)c1ccccc1)N2C (stereo partly drawn) as well.
bin 2

Try this molecule next: BrCCBr
bin 0

Also need COc1ncccc1B(O)O , thanks.
bin 2

Quick one: CCC(=O)CC
bin 0

Please do the same for c1ccc(CCCc2ccccc2)cc1 as well.
bin 0

Note, next up: C[SiH](C)Cl
bin 0

---

measured.attribute: melting point (°C)
Hi! Could you send only the number? It should be in °C, unit omitted.

Given the molecule Nc1ccc(C=C/C(=N/O)c2ccccc2)cc1 [4-[(3Z)-3-(hydroxyimino)-3-phenylprop-1-en-1-yl]aniline] , what is its reported melting point?
139

# repeat for O=C1c2ccccc2-c2ccccc21
83

And then Nc1cc(Cl)ccc1Cl , what is it?
50

---

Provide the recorded melting point for the entries that follow.

Recorded melting point of CCCCCCCCCCCCCCC [pentadecane] , please.
10 °C

Same for Clc1cc(Cl)cc(Cl)c1 [1,3,5-Trichlorobenzene]
64 °C

Input COc1ccc2c3c1O[C@H]1[C@@H](O)CC[C@H]4[C@@H](C2)N(C)CC[C@@]341 [Dihydrocodeine]
112 °C

Input CC(C)Nc1ccc(Nc2ccccc2)cc1 [N-isopropyl-n'-phenyl-p-phenylenediamine]
77 °C

Next molecule: OB(O)c1ccc(CBr)cc1 [4-(bromomethyl)benzeneboronic acid]
148 °C

One more molecule: COC(=O)c1ccc(O)cc1 [Methyl 4-hydroxybenzoate]
127 °C

How about Fc1ccccc1 [Fluorobenzene] ?
-40 °C

Param item: Brc1ccccc1Br [o-dibromobenzene]
7 °C

Next up: Cc1ccccc1C(=O)O [o-toluic_acid]
105 °C

Record: C[C@@H]1[C@H](O)[C@@H](C)C=CC=CC=CC=CC=CC=CC=C[C@H](O[C@@H]2O[C@H](C)[C@@H](O)[C@H](N)[C@@H]2O)C[C@@H]2O[C@](O)(C[C@@H](O)C[C@@H](O)[C@H](O)CC[C@@H](O)C[C@@H](O)CC(=O)O[C@H]1C)C[C@H](O)[C@H]2C(=O)O [Amphotericin B]
170 °C

Same read-out for OCc1cccc(CO)c1 [1,3-benzenedimethanol] ?
58 °C

Try this molecule next: O=[N+]([O-])c1ccc(Cl)cc1Cl [2,4-dichloro-1-nitrobenzene]
31 °C

Here is the next molecule: CC(=O)Nc1ccccc1 [acetanilide]
114 °C

Again, but for CCCCCCCc1ccccc1 [N-heptylbenzene]
-48 °C

What about this molecule? CN(C)c1ccc(C2Nn3c(COc4ccccc4)nnc3S2)cc1 (stereo not given)
144 °C

---

I'd appreciate it if you could supply melting point values for the items below.
Please provide the amount together with its unit, number first.

Which melting point value is on record for N#Cc1cccc(C(=O)O)c1 [3-cyanobenzoic acid] ?
222 °C

For CC(C)[C@@H]1CC[C@@H](C)C[C@H]1O [L-menthol] then?
44 °C

Please give the result for CC(=O)C(=Cc1ccc(-c2ccccc2[N+](=O)[O-])o1)C(C)=O [3-{[5-(2-nitrophenyl)-2-furyl]methylene}pentane-2,4-dione] too.
128 °C

Please give the result for CC(N)CCc1ccccc1 (stereo not given) [3-amino-1-phenylbutane] too.
-50 °C

// next record OCCCCCCO [Hexane-1,6-Diol]
45 °C

---

I'd appreciate it if you could supply melting point values for the items below.
State the answer as a number, implicitly in °C.

What does the record list as melting point for CCCCCCCCCCCC[N+](C)(C)[O-] [Dodecyl(dimethyl)amine oxide] ?
132

Now the molecule CCC(C(=O)NC(=O)NC(C)=O)c1ccccc1 (stereo unspecified) [1-Acetyl-3-(2-phenylbutyryl)urea]
100

Further, for Clc1ccc(Cl)c(-c2cc(Cl)c(Cl)cc2Cl)c1 [PCB-101] ?
77

Next entry: CC(=O)Nc1nc(O)c2ncn(COCCOC(C)=O)c2n1 [N,O-Diacetylacyclovir]
204

Same again, this time with O=c1c(-c2ccccc2)c1-c1ccccc1 [2,3-diphenyl-2-cyclopropen-1-one]
120

Same lookup for OCCN1CCN(CCCN2c3ccccc3Sc3ccc(Cl)cc32)CC1 [perphenazine] , please.
96.9

Another molecule to check: CC1=CC(=O)CC(C)(C)C1=O [2,6,6-trimethyl-2-cyclohexene-1,4-dione]
20

Please do the same for COc1ccc(-c2cc(=O)c3c(O)c(OC)c(O)cc3o2)cc1 [5,7-Dihydroxy-6-methoxy-2-(4-methoxyphenyl)-4H-chromen-4-one] as well.
225

And the next one, CC(=O)OCC(OC(C)=O)C(OC(C)=O)C(OC(C)=O)C(OC(C)=O)C(=O)O (stereo unspecified) [2,3,4,5,6-penta(acetyloxy)hexanoic acid] ?
110

Also check Nc1ccc(C(F)(F)F)cc1Br [2-bromo-4-(trifluoromethyl)aniline]
30

What do you get for C1=CC=C/C=CC=C1 [1,3,5,7-cyclooctatetraene] ?
-5

What do you have for Nc1ccccc1-c1ccccc1 [2-aminobiphenyl] ?
50

Would you mind doing Cc1cccc(N)c1C [2,3-dimethylaniline] as well?
3

Now consider Cc1ccc(B(O)O)cc1 [4-methylbenzeneboronic acid] .
250

And what about the molecule CCOC(=O)C(NC(C)=O)C(=O)OCC [diethyl acetamidomalonate] ?
98

Do the same for Cc1ccc([N+](=O)[O-])cc1Cl [2-chloro-4-nitrotoluene] please
64

Can you check CCCCCCOC(C)=O [hexyl_acetate] next?
-80

Also check CC(Cc1ccccc1)NC(C#N)c1ccccc1 (stereo unspecified) [amphetaminil]
85

Entry to check: COC(=O)c1ccccc1N [Methyl 2-aminobenzoate]
24

Proceed to CCOc1ccc(N=C=S)cc1 [4-ethoxyphenyl isothiocyanate]
59

Param item: C[C@]12CC[C@@H]3c4ccc(O)cc4CC[C@H]3[C@@H]1C[C@@H](O)[C@@H]2O [estriol]
282

Also, CCCCCCCCCCCCCCC [N-pentadecane] please.
10

Entry to check: NS(=O)(=O)c1ccccc1 [benzenesulfonamide]
153

Same again, this time with O=C(O)[C@@H](O)[C@H](O)C(=O)O [(2S,3S)-2,3-Dihydroxysuccinic acid]
173

CC(Oc1cc(Cl)c(Cl)cc1Cl)C(=O)O (stereo unspecified) [2-(2,4,5-trichlorophenoxy)propionic acid] ?
178

Note, next up: Oc1ccc2ccccc2c1Br [1-bromo-2-naphthol]
75

And Cc1ccccc1C [o-xylene] ?
-25

Then what about the molecule O=C(O)/C=C/c1cccc(Cl)c1 [m-chlorocinnamic_acid__(trans)] ?
159

Now consider COC1=CC(=O)C=C(OC)C1=O [2,6-dimethoxy-p-benzoquinone] and answer again.
255

Now consider COC(=O)c1cccc([N+](=O)[O-])c1 [methyl 3-nitrobenzoate] and answer again.
79

// same read-out, input: Clc1ccc(C(c2ccc(Cl)cc2)C(Cl)(Cl)Cl)cc1 [4,4'-DDT]
110

---

For each entry below, report its melting point value.
Numeric answer only, unit °C assumed.

# melting point lookup, item N#Cc1cccc(Cl)c1
41

Could you do the same for Nc1ccc(I)cc1 , please?
63

Also Brc1c(Br)c(Br)c(Br)c(Br)c1Br ?
306

And for CN[C@@H](C)[C@@H](O)c1ccccc1 ?
118

Proceed to CC(C)NCC(O)COc1cccc2ccccc12 (stereo not drawn)
162

Input O=C(S)CCCC(=O)S
128

Input CC1(C)CC(=O)CC(=O)C1
148

Cc1cccc(C#N)c1 , same question.
-23

---

Label T for high-side melting point (at or above 100 °C) and F for low-side melting point (below it).

Determine whether measured melting point meets or exceeds 100 °C for O=C(O)c1ccccc1CO [o-hydroxymethyl_benzoic_acid]
T

How about c1cc2c3c(c1)ccc1cccc(c13)C2 [4H-Cyclopenta[def]phenanthrene] ?
T

Cool, now O=C(c1ccccc1)C(c1ccccc1)(c1ccccc1)c1ccccc1 [benzopinacolone]
T

Param item: CCOC(=O)C1=CC(C)N=N1 (stereo unspecified) [Ethyl 5-methyl-1H-pyrazole-3-carboxylate]
F

Follow-up item: C=CCC [1-butene]
F

Ok, now O=C(O)c1ccc(C(F)(F)F)nc1Cl [2-chloro-6-(trifluoromethyl)nicotinic acid]
T

Next compound: CC(=O)Oc1cccc(C(=O)O)c1 [m-acetoxy_benzoic_acid]
T

Repeat for the following compound: CC(=O)Oc1ccccc1C(N)=O [o-acetoxybenzamide]
T

Now try Nc1ccc([N+](=O)[O-])cc1[N+](=O)[O-] [2,4-dinitroaniline] .
T

Same thing, different compound: CC(C)(C)OC(=O)NC(CC(=O)O)c1ccccc1F (stereo unspecified) [3-(boc-amino)-3-(2-fluorophenyl)propionic acid]
T

Now consider Cc1ccc(Cl)cc1[N+](=O)[O-] [4-chloro-2-nitrotoluene] .
F

And O=[N+]([O-])c1ccccc1C#Cc1ccccn1 [2-[(2-nitrophenyl)ethynyl]pyridine] ?
F

And CCc1ccccc1N [2-ethylaniline] ?
F

Note, next up: ClC1(Cl)[C@]2(Cl)C(/Cl)=C(/Cl)[C@@]1(Cl)[C@@H]3[C@@H](Cl)[C@@H](Cl)C[C@H]23 [a-Chlordane, cis-Chlordane]
T

Likewise for CC(CC(=O)O)C(=O)O (stereo unspecified) [2-Methylsuccinic acid] ?
T

COC(=O)c1sccc1Cl [methyl 3-chlorothiophene-2-carboxylate] , same question.
F

For NC(=S)C1COc2ccccc2O1 (stereo unspecified) [1,4-benzodioxane-2-thiocarboxamide] then?
T

Same question, CCOC(=O)CC(C)=O [ethyl acetoacetate] this time
F

// next record CN(C)c1ccccc1 [n,n-dimethylaniline]
F

Consider next the compound CN(C)C(=O)Nc1ccc(Cl)c(Cl)c1 [Diuron] in the same way.
T

Note, next up: CCCCCCCC(=O)O [Caprylic acid]
F

// repeat for NC1CCCC1 [cyclopentylamine] and report
F

Next compound: Cc1ccc(Br)cc1 [4-bromotoluene]
F

Continue with N#Cc1c(OCC(F)(F)F)cccc1OCC(F)(F)F [2,6-bis(2,2,2-trifluoroethoxy)benzonitrile]
T

Sourced from the Bradley open melting point set (2014)
